Data origin, for the record: ChEMBL document CHEMBL4689842

Measured Population Healthy Nuclei (%) by item
system: U2OS; assay: Multiplex assay against U2OS; format: toxicity, cell-based; conditions: human, 12 h, 10 µM, compound concentration 10 uM, replicate 2

| compound | measured.target | Population Healthy Nuclei (%) |
| --- | --- | --- |
| CCOc1cc2ncc(C#N)c(Nc3ccc(OCc4cccc(F)c4)c(Cl)c3)c2cc1NC(=O)/C=C/CN(C)C | U2OS | 65% |
| Cc1cc2c(cc1N1C(=O)c3cccc4c(CCCO)ccc(c34)C1=O)n(C)c(=O)n2C | U2OS | 63% |
| N#Cc1cnc(Nc2cc(NC[C@H]3CNCCO3)c(C(F)(F)F)cn2)cn1 | U2OS | 85% |
| CC(C)N1CCC(C)(C)c2cc(C#Cc3ccc(C(=O)O)cc3)ccc21 | U2OS | 44% |
| CCc1cc2c(cc1CC)CC(NC[C@H](O)c1ccc(O)c3[nH]c(=O)ccc13)C2 | U2OS | 64% |
| COc1ccc(NS(=O)(=O)c2sc3ccc(Cl)cc3c2C)cc1N1CCNCC1.Cl | U2OS | 56% |
| Cc1nc(Cc2cccc(C(F)(F)F)c2)sc1-c1ccc(C(N)=O)nc1 [TP-024n] | U2OS | 67% |
| CCOc1cc(N2CCC(O)CC2)ccc1Nc1ncc2c(n1)N(C1CCCC1)CCC(=O)N2C | U2OS | 90% |

The reported Population Healthy Nuclei (%) of the compound Cl.Cl.NC1(c2ccc(-c3nc4ccn5c(=O)[nH]nc5c4cc3-c3ccccc3)cc2)CCC1 was 42%
